experimental-system: CSF-1R (Homo sapiens, UniProt P07333)
Construct: purchased Invitrogen PV3249 (lot 662393N)
Sequence (P07333 20-972): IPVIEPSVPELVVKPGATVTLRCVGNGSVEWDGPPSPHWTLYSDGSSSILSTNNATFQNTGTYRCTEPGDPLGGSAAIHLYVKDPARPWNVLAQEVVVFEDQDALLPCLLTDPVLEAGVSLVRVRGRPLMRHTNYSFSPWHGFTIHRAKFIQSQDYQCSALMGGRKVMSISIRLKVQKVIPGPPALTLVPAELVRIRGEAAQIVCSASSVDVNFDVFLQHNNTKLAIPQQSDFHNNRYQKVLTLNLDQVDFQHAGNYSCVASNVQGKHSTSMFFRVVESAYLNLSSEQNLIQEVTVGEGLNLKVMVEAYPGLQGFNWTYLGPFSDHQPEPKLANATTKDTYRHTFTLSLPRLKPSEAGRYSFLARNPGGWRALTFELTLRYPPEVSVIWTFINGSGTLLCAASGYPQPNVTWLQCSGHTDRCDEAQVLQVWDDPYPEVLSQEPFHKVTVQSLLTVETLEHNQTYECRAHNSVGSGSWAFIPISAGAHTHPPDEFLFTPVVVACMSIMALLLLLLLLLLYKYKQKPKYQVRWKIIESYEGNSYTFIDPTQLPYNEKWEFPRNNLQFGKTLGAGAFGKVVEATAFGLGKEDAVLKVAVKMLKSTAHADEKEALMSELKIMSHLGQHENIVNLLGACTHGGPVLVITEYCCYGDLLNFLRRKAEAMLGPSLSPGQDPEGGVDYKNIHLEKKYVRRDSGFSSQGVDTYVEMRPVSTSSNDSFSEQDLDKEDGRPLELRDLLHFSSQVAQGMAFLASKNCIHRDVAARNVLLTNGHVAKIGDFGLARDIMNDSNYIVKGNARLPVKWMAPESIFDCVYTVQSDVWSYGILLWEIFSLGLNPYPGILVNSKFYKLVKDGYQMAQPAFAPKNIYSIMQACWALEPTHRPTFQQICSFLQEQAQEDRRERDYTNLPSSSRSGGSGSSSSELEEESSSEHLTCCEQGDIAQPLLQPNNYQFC
test-details: HTRF biochemical assay, CSF-1R
setup-conditions: Table 4
pIC50: −log10 of the molar value.
I'd be grateful if you could share measured pIC50 for these entries.

Query block: Missing value: pIC50, CSF-1R (Homo sapiens, UniProt P07333), entry COc1ccc2ncc(C(=O)Nc3cc(-c4noc(C[C@@H](C)O)n4)ccc3C)n2c1 . Fill in?
Result block: 5.30 to 6.30

Query block: Any idea what pIC50 came out for COCc1ccn2c(C(=O)Nc3cc(-c4noc(C)n4)ccc3F)cnc2c1 on CSF-1R (Homo sapiens, UniProt P07333)?
Result block: 5.30 to 6.30

Query block: Given the entry Cc1ccc(-c2noc(C[C@@H](C)O)n2)cc1NC(=O)c1cnn2ccccc12 , what pIC50 was observed with CSF-1R (Homo sapiens, UniProt P07333)?
Result block: 5.30 to 6.30

Query block: // fetch CSF-1R (Homo sapiens, UniProt P07333) pIC50 for Cc1ccc(-c2noc(C[C@H](C)O)n2)cc1NC(=O)c1cnn2ccccc12
Result block: 6.30 to 7.30

Query block: Recall the recorded pIC50 for Cc1ccc(-c2noc(CC(O)C(F)F)n2)cc1NC(=O)c1cnn2ccccc12 (single isomer, unassigned) with CSF-1R (Homo sapiens, UniProt P07333) and state it.
Result block: 6.30 to 7.30

Query block: Under CSF-1R (Homo sapiens, UniProt P07333): pIC50 value of Cc1ccc(-c2noc([C@H]3C[C@@H]3F)n2)cc1NC(=O)c1cnn2cc(F)ccc12 ?
Result block: 6.30 to 7.30

Query block: Record Cc1ccc(-c2noc(C3CC(F)(F)C3)n2)cc1NC(=O)c1cnc2cc(CO)ccn12 : what is its pIC50 with CSF-1R (Homo sapiens, UniProt P07333)?
Result block: ≥ 7.30

Query block: I'm curious: which pIC50 was measured for Cc1ccc(-c2noc([C@H]3CC(F)(F)CN3)n2)cc1NC(=O)c1cnn2ccccc12 tested on CSF-1R (Homo sapiens, UniProt P07333)?
Result block: 6.30 to 7.30

====

test-details: Three time point assay for plasma, brain and testes distribution after oral dosing
Format: in vivo, rat
setup-conditions: male, SD, testes, 10 mg/kg; rat, oral dosing, time point 2 h; read-out: Testes concentration
parameter: concentration at 2 h (ng/g)
I only need the number, in ng/g, no unit after it.

Query block: What does the data say about its concentration at 2 h? Entry: Cc1ccc(-c2noc([C@H]3C[C@@H]3F)n2)cc1NC(=O)c1cnc2cc(COCC(C)(C)O)ccn12
Result block: 653

====

experimental-system: wtKIT (Homo sapiens)
Construct: 1888289AM in the reaction mixtures
Sequence (P10721 26-976): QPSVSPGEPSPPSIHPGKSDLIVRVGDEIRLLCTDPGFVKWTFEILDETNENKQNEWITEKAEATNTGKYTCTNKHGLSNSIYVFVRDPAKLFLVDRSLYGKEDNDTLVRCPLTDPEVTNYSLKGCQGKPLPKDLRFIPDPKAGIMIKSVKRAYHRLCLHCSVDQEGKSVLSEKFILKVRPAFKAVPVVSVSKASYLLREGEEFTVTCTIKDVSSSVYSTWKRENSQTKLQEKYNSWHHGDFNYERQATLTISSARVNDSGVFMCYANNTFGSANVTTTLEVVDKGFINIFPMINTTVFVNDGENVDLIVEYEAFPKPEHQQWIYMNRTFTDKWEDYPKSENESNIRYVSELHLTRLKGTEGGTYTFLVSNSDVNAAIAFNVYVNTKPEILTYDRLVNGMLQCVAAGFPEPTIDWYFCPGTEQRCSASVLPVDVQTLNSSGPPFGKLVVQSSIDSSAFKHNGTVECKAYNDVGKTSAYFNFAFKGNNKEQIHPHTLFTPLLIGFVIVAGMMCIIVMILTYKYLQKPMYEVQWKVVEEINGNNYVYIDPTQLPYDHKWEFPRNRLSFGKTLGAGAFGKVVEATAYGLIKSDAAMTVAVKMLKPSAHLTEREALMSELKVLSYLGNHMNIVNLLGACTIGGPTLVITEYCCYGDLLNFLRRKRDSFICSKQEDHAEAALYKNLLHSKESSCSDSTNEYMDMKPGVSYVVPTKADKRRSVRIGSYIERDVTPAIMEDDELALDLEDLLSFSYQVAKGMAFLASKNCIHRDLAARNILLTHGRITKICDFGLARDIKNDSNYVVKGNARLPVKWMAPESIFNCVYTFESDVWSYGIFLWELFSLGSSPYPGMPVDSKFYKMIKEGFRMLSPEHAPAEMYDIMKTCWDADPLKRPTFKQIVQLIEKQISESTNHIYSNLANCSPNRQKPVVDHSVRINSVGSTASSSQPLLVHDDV
test-details: HTRF biochemical assay, wtKIT (phosphorylation of a peptide substrate)
setup-conditions: Table 4
Procedure: Exemplary compounds were tested for ability to inhibit the phosphorylation of a peptide substrate by the tyrosine kinase wt KIT, PDGFRα, or CSF-1R. Assay procedures and results are described below. Enzyme, substrate, and cofactors (ATP and Mn^2+) are combined in a well of a microtiter plate and incubated for 3 hours at 25° C. At the end of the incubation, the reaction is quenched by the addition of an EDTA-containing buffer. […] • 1. […] Read plate in BioTek Synergy Reader. […]
Can you tell me IC50 for the items I'm about to list?

Query block: Give its IC50 value. Item: Cc1ccc(-c2noc(CC(O)C(C)C)n2)cc1NC(=O)c1cnc2ccccn12 (stereo not shown)
Result block: ≤ 50 nM

Query block: Quick one: IC50 of Cc1nc(-c2ccc(C)c(NC(=O)c3cnc4ccccn34)c2)no1 [Compound I-564] ?
Result block: 50 to 500 nM

Query block: Find the recorded IC50 belonging to Cc1ccc(-c2noc([C@H]3C[C@@H]3F)n2)cc1NC(=O)c1cnc2cc(CCC(C)(C)CO)ccn12 and report it.
Result block: ≤ 50 nM

Query block: State the recorded IC50 for this entry: Cc1nc(-c2ccc(C)c(NC(=O)c3cnc4cc(OCCCN(C(=O)OC(C)(C)C)C5COC5)ccn34)c2)no1
Result block: ≤ 50 nM

Query block: Tell me the measured IC50 of Cc1ccc(-c2noc(C3CC(F)(F)C3)n2)cc1NC(=O)c1cnn2ccccc12 , please.
Result block: ≤ 50 nM

Query block: I would be grateful if you could share the reported IC50 for Cc1ccc(-c2noc([C@H]3C[C@@H]3F)n2)cc1NC(=O)c1cnc2cc(NS(=O)(=O)c3c(C)noc3C)ccn12 .
Result block: 50 to 500 nM

Query block: Item Cc1ccc(-c2noc([C@H]3C[C@@H]3F)n2)cc1NC(=O)c1cnn2ccc(C(F)F)cc12 has what recorded IC50?
Result block: ≤ 50 nM

Query block: Value lookup for IC50; key = CCc1nc(-c2ccc(C)c(NC(=O)c3cnc4cc(COC)ccn34)c2)no1
Result block: ≤ 50 nM

Query block: Fill in: IC50 of COC(=O)N1CC(c2nc(-c3ccc(C)c(NC(=O)c4cnc5cc(OCCO)ccn45)c3)no2)C1 is ___
Result block: ≤ 50 nM

Query block: Entry Cc1ccn2c(C(=O)Nc3cc(-c4noc(-c5ccnnc5)n4)ccc3C)cnc2c1 : reported IC50 = ?
Result block: 50 to 500 nM

Query block: Recorded IC50 for Cc1ccc(-c2noc(C3CC(O)C3)n2)cc1NC(=O)c1cnc2cc(-c3ccn(C)n3)ccn12 (stereo not shown) , please?
Result block: ≤ 50 nM

Query block: Please look up its IC50: Cc1ccc(-c2noc(C3CC(NC(=O)OC(C)(C)C)C3)n2)cc1NC(=O)c1cnc2cc(Cl)ccn12 (stereo not shown)
Result block: 50 to 500 nM

Query block: Please report the recorded IC50 for Cc1ccc(-c2ncon2)cc1NC(=O)c1cnc2cc(-c3cscn3)ccn12 .
Result block: ≤ 50 nM

Query block: Value lookup for IC50; key = COCc1ccn2c(C(=O)Nc3cc(-c4noc(C(F)(F)F)n4)ccc3C)cnc2c1
Result block: 50 to 500 nM

Query block: Entry under review: COc1ccn2c(C(=O)Nc3cc(-c4noc(-c5ccccn5)n4)ccc3C)cnc2c1 . Reported IC50?
Result block: ≤ 50 nM

Query block: Returns the measured IC50 for the input compound. Input: Cc1nc(-c2ccc(C)c(NC(=O)c3cnn4cc(C(F)F)ccc34)c2)no1
Result block: 50 to 500 nM
